Target: CYP11B2 (Homo sapiens)
Sequence (P19099 whole entry): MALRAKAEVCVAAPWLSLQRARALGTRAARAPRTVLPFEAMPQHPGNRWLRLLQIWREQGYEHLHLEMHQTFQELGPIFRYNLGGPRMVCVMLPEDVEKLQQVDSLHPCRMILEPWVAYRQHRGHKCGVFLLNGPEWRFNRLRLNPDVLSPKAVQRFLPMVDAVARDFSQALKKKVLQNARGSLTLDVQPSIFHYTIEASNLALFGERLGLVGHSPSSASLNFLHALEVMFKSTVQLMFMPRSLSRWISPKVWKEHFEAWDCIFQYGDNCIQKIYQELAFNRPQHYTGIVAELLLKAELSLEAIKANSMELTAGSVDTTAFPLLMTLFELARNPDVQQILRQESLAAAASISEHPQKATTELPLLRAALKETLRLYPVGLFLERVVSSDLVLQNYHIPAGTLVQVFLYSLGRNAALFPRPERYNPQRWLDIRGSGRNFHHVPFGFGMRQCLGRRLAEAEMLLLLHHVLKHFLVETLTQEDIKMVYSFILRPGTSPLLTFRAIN
Test: Inhibition of human CYP11B2 expressed in hamster V79MZh cells using [1,2-3H]-11-deoxy-corticosterone as substrate
Type: cell-based
Conditions: human, hamster V79MZh cells expressing human CYP11B2, probe [1,2-3H]-11-deoxy-corticosterone
reported.property: pIC50
Remember, pIC50 is on a log scale: it is -log10 of the molar concentration.

Q: Check the records and state pIC50 for O=C1CCc2cc(C(C3CC3)n3ccnc3)cc3c2N1CC3 (stereo unspecified)
Ans: 7.62
